Please respond with reported MIC90 for every item in the list.
Test system: E. faecium VS
measurement_notes: In vitro MIC, 2010 surveillance isolates
Format: cell-based
measurement_setup: L. Amer; N=51

Query: # query: MIC90 of entry CO/N=C(\C(=O)N[C@@H]1C(=O)N2C(C(=O)O)=C(CSc3nc(=O)c(=O)[nH]n3C)CS[C@H]12)c1csc(N)n1
Response: > 8 µg/mL

Query: # query: MIC90 of entry C[C@H]1COc2c(N3CCN(C)CC3)c(F)cc3c(=O)c(C(=O)O)cn1c23
Response: > 4 µg/mL

Query: # query: MIC90 of entry C[C@H]1c2cccc(O)c2C(=O)C2=C(O)[C@]3(O)C(=O)C(C(N)=O)=C(O)[C@@H](N(C)C)[C@@H]3[C@@H](O)[C@@H]21
Response: > 8 µg/mL

Provenance of the data: patent US10238670B2
